Measured values drawn from patent US7495027B2 for this set.

biological target: E. coli Enopyruvyl-UPD-N-acetylglucosamine reductase, Mur B (Escherichia coli, UniProt P08373); experiment: biochemical; conditions: (E) E. coli enzyme; read-out: MurB IC50 (converted)
Sequence (P08373 whole entry): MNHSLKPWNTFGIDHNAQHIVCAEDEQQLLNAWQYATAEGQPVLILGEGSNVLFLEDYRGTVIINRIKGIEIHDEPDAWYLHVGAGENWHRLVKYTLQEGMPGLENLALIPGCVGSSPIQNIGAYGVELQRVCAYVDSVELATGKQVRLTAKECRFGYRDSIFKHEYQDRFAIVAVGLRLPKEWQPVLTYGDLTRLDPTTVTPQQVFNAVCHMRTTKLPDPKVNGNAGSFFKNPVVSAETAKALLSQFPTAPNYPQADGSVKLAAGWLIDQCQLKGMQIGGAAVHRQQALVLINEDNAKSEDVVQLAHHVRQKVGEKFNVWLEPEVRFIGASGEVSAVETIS
Below is a list of entries, each paired with its recorded IC50 value.

[
  {
    "compound": "O=C1O/C(=C\\c2ccccc2C(F)(F)F)C(O)=C1c1ccc(-c2ccccc2)c(F)c1 [Example 107]",
    "IC50 (µM)": 9.38
  },
  {
    "compound": "O=C1O/C(=C\\c2cccc3ccccc23)C(O)=C1c1cc(Cl)cc(Cl)c1 [Example 70]",
    "IC50 (µM)": 18.3
  },
  {
    "compound": "Cc1ccccc1-c1ccc(/C=C2\\OC(=O)C(c3cc(Cl)cc(Cl)c3)=C2O)cc1C [Example 29]",
    "IC50 (µM)": 4.57
  },
  {
    "compound": "O=C1O/C(=C\\c2cccc3ccccc23)C(O)=C1c1cccc2ccccc12 [Example 47]",
    "IC50 (µM)": 63.1
  },
  {
    "compound": "O=Cc1cccc(C2=C(O)/C(=C/c3cccc4ccccc34)OC2=O)c1 [Example 76]",
    "IC50 (µM)": 20.4
  },
  {
    "compound": "O=C1O/C(=C\\c2cc(F)cc(C(F)(F)F)c2)C(O)=C1c1cccc(-c2ccccc2)c1 [Example 112]",
    "IC50 (µM)": 11.7
  },
  {
    "compound": "CC(C)(C)c1ccc(-c2ccc(C3=C(O)/C(=C/c4ccc(Cl)c(C(F)(F)F)c4)OC3=O)cc2)cc1 [Example 123]",
    "IC50 (µM)": 6.01
  },
  {
    "compound": "O=C1O/C(=C\\c2ccc(Cl)cc2)C(O)=C1c1ccc(-c2ccccc2)c(F)c1 [Example 138]",
    "IC50 (µM)": 56
  }
]

* * *

biological target: S. aureus Uridine-diphosphate-N-acetvimuramoyl: L-alanine lipase, MurC (Staphylococcus aureus, UniProt Q2FXJ0); test: biochemical; conditions: (S) S. aureus enzyme; read-out: MurC IC50 (converted)
Sequence (Q2FXJ0 whole entry): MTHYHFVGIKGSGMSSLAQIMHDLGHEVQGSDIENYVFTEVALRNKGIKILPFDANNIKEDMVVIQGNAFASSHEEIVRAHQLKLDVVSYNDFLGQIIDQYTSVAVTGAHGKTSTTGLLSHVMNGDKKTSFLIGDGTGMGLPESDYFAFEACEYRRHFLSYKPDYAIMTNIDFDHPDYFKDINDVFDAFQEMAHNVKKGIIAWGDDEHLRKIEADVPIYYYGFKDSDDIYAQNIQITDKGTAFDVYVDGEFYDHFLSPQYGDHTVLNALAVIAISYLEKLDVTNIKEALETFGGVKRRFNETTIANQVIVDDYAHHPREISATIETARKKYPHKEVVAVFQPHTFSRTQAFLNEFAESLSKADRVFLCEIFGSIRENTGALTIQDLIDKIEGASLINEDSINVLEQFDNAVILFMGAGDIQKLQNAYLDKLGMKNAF
Values of IC50 strictly less than 30 µM map to rule met, and values of at least 30 µM map to rule not met.

[
  {
    "query-smiles": "O=C1O/C(=C\\c2ccc(-c3ccccc3)cc2)C(O)=C1c1cccc(C(F)(F)F)c1",
    "assigned-category": "rule met"
  },
  {
    "query-smiles": "O=C1O/C(=C\\c2cccc3ccccc23)C(O)=C1c1ccc(-c2ccccc2)cc1",
    "assigned-category": "rule not met"
  },
  {
    "query-smiles": "O=C1O/C(=C\\c2ccc(-c3cc(Cl)cc(Cl)c3)cc2)C(O)=C1c1cc(Cl)cc(Cl)c1",
    "assigned-category": "rule not met"
  },
  {
    "query-smiles": "O=C1O/C(=C\\c2cccnc2)C(O)=C1c1ccc(-c2ccccc2)cc1",
    "assigned-category": "rule not met"
  },
  {
    "query-smiles": "O=C1O/C(=C\\c2ccc(-c3ccccc3)cc2)C(O)=C1c1ccc(Cl)cc1",
    "assigned-category": "rule met"
  },
  {
    "query-smiles": "O=C1O/C(=C\\c2ccc(Cl)cc2)C(O)=C1c1ccc(-c2ccccc2)c(F)c1",
    "assigned-category": "rule met"
  },
  {
    "query-smiles": "O=C1O/C(=C\\c2cccc3ccccc23)C(O)=C1c1ccc(Cl)cc1",
    "assigned-category": "rule not met"
  },
  {
    "query-smiles": "O=C1O/C(=C\\c2cccc(C(F)(F)F)c2)C(O)=C1c1ccc(-c2ccccc2)c(F)c1",
    "assigned-category": "rule met"
  }
]

* * *

Below is a list of entries, each paired with its recorded % Mortality 48 h value.
test system: larvae of blowfly, Lucilia sericata; assay: whole plant or invertebrate; details: dose rate of 20 ppm; Lucilia sericata larvae on treated filter paper with bovine serum; assessed at 48 h

[
  {
    "compound": "N#Cc1ccc(C2=C(O)C(=Cc3cccc(C(F)(F)F)c3)OC2=O)cc1 (mixture of isomers)",
    "% Mortality 48 h (%)": 90
  },
  {
    "compound": "N#Cc1ccc(-c2ccc(C=C3OC(=O)C(c4cccc(C(F)(F)F)c4)=C3O)cc2)cc1 (mixture of isomers)",
    "% Mortality 48 h (%)": 0
  },
  {
    "compound": "N#Cc1ccc(C2=C(O)C(=Cc3ccc(Cl)cc3)OC2=O)cc1 (mixture of isomers)",
    "% Mortality 48 h (%)": 100
  },
  {
    "compound": "N#Cc1cccc(C2=C(O)C(=Cc3ccc(C(F)(F)F)cc3)OC2=O)c1 (mixture of isomers)",
    "% Mortality 48 h (%)": 0
  },
  {
    "compound": "N#Cc1ccc(C2=C(O)C(=Cc3ccc(C(F)(F)F)cc3)OC2=O)cc1 (mixture of isomers)",
    "% Mortality 48 h (%)": 100
  },
  {
    "compound": "O=C1O/C(=C\\c2cccc(C(F)(F)F)c2)C(O)=C1c1ccccc1",
    "% Mortality 48 h (%)": 0
  },
  {
    "compound": "O=C1OC(=Cc2ccc(-c3ccc(Cl)cc3)cc2)C(O)=C1c1ccc(F)cc1 (mixture of isomers)",
    "% Mortality 48 h (%)": 0
  },
  {
    "compound": "O=C1OC(=Cc2ccc(F)cc2)C(O)=C1c1ccc(F)cc1 (mixture of isomers)",
    "% Mortality 48 h (%)": 0
  },
  {
    "compound": "O=C1O/C(=C\\c2ccc(-c3cccc(C(F)(F)F)c3)cc2)C(O)=C1c1cccc(C(F)(F)F)c1",
    "% Mortality 48 h (%)": 0
  },
  {
    "compound": "N#Cc1ccc(C=C2OC(=O)C(c3cccc(C#N)c3)=C2O)cc1 (mixture of isomers)",
    "% Mortality 48 h (%)": 0
  },
  {
    "compound": "O=C1OC(=Cc2ccc(C(F)(F)F)cc2)C(O)=C1c1ccc(Cl)cc1 (mixture of isomers)",
    "% Mortality 48 h (%)": 100
  },
  {
    "compound": "C=CCOC1=C(c2ccc(Cl)cc2)C(=O)OC1=Cc1ccc(C#N)cc1 (mixture of isomers)",
    "% Mortality 48 h (%)": 0
  },
  {
    "compound": "COC1=C(c2ccc(Cl)cc2)C(=O)OC1=Cc1ccc(C#N)cc1 (mixture of isomers)",
    "% Mortality 48 h (%)": 0
  }
]

* * *

Below is a list of entries, each paired with its recorded IC50 value.
biological target: S. aureus Uridine-diphosphate-N-acetvimuramoyl: L-alanine lipase, MurC (Staphylococcus aureus); experiment: biochemical; details: (S) S. aureus enzyme; read-out: MurC IC50 (converted)
readout: IC50 (µM)

[
  {
    "compound": "Cc1cc(/C=C2\\OC(=O)C(c3cccc(Cl)c3)=C2O)ccc1-c1ccccc1C(F)(F)F [Example 26]",
    "unit-abbrev": "µM",
    "endpoint-result": 13.1
  },
  {
    "compound": "CN(C)c1ccc(/C=C2\\OC(=O)C(c3ccc(Cl)cc3)=C2O)c2ccccc12 [Example 78]",
    "unit-abbrev": "µM",
    "endpoint-result": 53.6
  },
  {
    "compound": "CC(=O)c1ccccc1-c1ccc(/C=C2\\OC(=O)C(c3cc(Cl)cc(Cl)c3)=C2O)cc1C [Example 40]",
    "unit-abbrev": "µM",
    "endpoint-result": 8.6
  },
  {
    "compound": "COc1ccccc1-c1ccc(/C=C2\\OC(=O)C(c3cccc(Cl)c3)=C2O)cc1C [Example 23]",
    "unit-abbrev": "µM",
    "endpoint-result": 28.6
  }
]

* * *

target: UniProtKB P08373; test: biochemical; details: (E) E. coli enzyme; read-out: MurB IC50 (converted)

[
  {
    "molecule": "O=C1O/C(=C\\c2ccc(C(F)(F)F)cc2)C(O)=C1c1ccc(-c2ccccc2)cc1 [R=H, R1=4-(biphenyl), R2=4-CF3—C6H4]",
    "relation-operator": "=",
    "IC50, µM": 14.7
  },
  {
    "molecule": "CC(C)(C)c1ccc(-c2ccc(C3=C(O)/C(=C/c4cccc(C(F)(F)F)c4Cl)OC3=O)cc2)cc1 [Example 116]",
    "relation-operator": "=",
    "IC50, µM": 8.02
  },
  {
    "molecule": "CCOc1ccc(-c2ccc(C3=C(O)/C(=C/c4cc(C(F)(F)F)ccc4F)OC3=O)cc2)cc1 [Example 122]",
    "relation-operator": "=",
    "IC50, µM": 29.8
  },
  {
    "molecule": "COc1ccccc1-c1ccc(/C=C2\\OC(=O)C(c3cccc(Cl)c3)=C2O)cc1C [Example 23]",
    "relation-operator": "=",
    "IC50, µM": 9.55
  },
  {
    "molecule": "Cc1cc(/C=C2\\OC(=O)C(c3cc(Cl)cc(Cl)c3)=C2O)ccc1-c1ccccc1C(F)(F)F [Example 27]",
    "relation-operator": "=",
    "IC50, µM": 6.11
  },
  {
    "molecule": "O=C1O/C(=C\\c2cccc3ccccc23)C(O)=C1c1ccc(-c2ccccc2)cc1 [R=H, R1=4-biphenyl, R2=1-naphthyl]",
    "relation-operator": "=",
    "IC50, µM": 12.8
  },
  {
    "molecule": "O=C1O/C(=C\\c2ccc3ccccc3c2)C(O)=C1c1cccc2ccccc12 [Example 56]",
    "relation-operator": ">",
    "IC50, µM": 68.6
  },
  {
    "molecule": "O=C1O/C(=C\\C2CCCCC2)C(O)=C1c1cccc(C(F)(F)F)c1 [Example 17]",
    "relation-operator": ">",
    "IC50, µM": 70.9
  },
  {
    "molecule": "CCCc1ccc(-c2ccc(C3=C(O)/C(=C/c4cc(C(F)(F)F)ccc4Cl)OC3=O)cc2)cc1 [Example 127]",
    "relation-operator": "=",
    "IC50, µM": 12.4
  },
  {
    "molecule": "Cc1ccccc1-c1ccc(/C=C2\\OC(=O)C(c3cccc(Cl)c3)=C2O)cc1C [Example 28]",
    "relation-operator": "=",
    "IC50, µM": 7.45
  },
  {
    "molecule": "COc1ccccc1-c1ccc(/C=C2\\OC(=O)C(c3cc(Cl)cc(Cl)c3)=C2O)cc1OC [Example 19]",
    "relation-operator": "=",
    "IC50, µM": 42.6
  },
  {
    "molecule": "O=C1O/C(=C\\c2ccc(-c3ccccc3)cc2)C(O)=C1c1cccc(Cl)c1 [Example 69]",
    "relation-operator": "=",
    "IC50, µM": 13.3
  },
  {
    "molecule": "O=C1O/C(=C\\c2ccc(-c3ccccc3)cc2)C(O)=C1c1ccc(Cl)cc1Cl [Example 65]",
    "relation-operator": "=",
    "IC50, µM": 24.4
  },
  {
    "molecule": "O=C1O/C(=C\\c2cc(F)cc(C(F)(F)F)c2)C(O)=C1c1ccc(-c2ccccc2)c(F)c1 [Example 110]",
    "relation-operator": "=",
    "IC50, µM": 11.3
  },
  {
    "molecule": "O=C1O/C(=C\\c2cccc(C(F)(F)F)c2Cl)C(O)=C1c1ccc(-c2ccccc2)cc1 [Example 113]",
    "relation-operator": "=",
    "IC50, µM": 6.77
  },
  {
    "molecule": "CCCc1ccc(-c2ccc(C3=C(O)/C(=C/c4cccc(C(F)(F)F)c4Cl)OC3=O)cc2)cc1 [Example 115]",
    "relation-operator": "=",
    "IC50, µM": 10.3
  }
]
